Each record here notes measured Dmax.
TARGET_UNDER_TEST: BRD9 (Homo sapiens, UniProt Q9H8M2)
Sequence (Q9H8M2 whole entry): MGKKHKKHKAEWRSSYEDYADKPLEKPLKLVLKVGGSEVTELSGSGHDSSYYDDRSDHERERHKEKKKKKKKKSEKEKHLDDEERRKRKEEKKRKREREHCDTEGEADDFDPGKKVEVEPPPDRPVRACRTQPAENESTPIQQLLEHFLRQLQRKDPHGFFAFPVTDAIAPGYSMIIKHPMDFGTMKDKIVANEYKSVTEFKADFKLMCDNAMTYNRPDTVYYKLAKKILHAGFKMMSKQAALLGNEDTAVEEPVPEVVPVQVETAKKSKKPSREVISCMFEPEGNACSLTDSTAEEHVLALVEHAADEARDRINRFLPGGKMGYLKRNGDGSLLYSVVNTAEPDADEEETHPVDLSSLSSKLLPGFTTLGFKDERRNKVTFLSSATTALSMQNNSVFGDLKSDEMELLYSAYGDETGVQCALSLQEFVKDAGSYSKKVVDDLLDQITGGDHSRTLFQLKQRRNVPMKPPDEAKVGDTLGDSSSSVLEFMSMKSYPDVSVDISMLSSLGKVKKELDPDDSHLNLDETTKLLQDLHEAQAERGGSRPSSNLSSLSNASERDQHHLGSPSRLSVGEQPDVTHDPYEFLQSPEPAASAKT
PROCEDURE_TEXT: BRD9 degradation, HiBiT-BRD9 KI HEK293 (LgBiT) cells, NanoGlo Lytic Endpoint assay (Assay Protocol 1)
Format: cell-based
ASSAY_CONDITIONS: HEK293; Table 4; BRD9 degradation, determined according to Assay Protocol 1; read-out: Dmax^1

{"COMPOUND": "COc1cc(-c2cn(C)c(=O)c(C)c2C)cc(OC)c1CN1CCN(C(=O)/C(C#N)=C/c2cccc(Br)n2)CC1", "Dmax": "> 70%"}
{"COMPOUND": "COc1cc(-c2cn(C)c(=O)c(C)c2C)cc(OC)c1CN1C2CC1CN(C(=O)/C(C#N)=C/c1cccc(Br)n1)C2 (mixture of isomers)", "Dmax": "> 70%"}
{"COMPOUND": "COc1cc(-c2cn(C)c(=O)c(C)c2C)cc(OC)c1CN1CC2CC(C1)N2C(=O)/C(C#N)=C/c1nccs1 (mixture of isomers)", "Dmax": "50 to 70%"}
{"COMPOUND": "COc1cc(-c2cn(C)c(=O)c(C)c2C)cc(OC)c1CN1C2CC1CN(C(=O)/C(C#N)=C/c1nccs1)C2 (mixture of isomers)", "Dmax": "50 to 70%"}
{"COMPOUND": "COc1cc(-c2cn(C)c(=O)c(C)c2C)cc(OC)c1C(=O)N1CC2CC1CN2C(=O)/C(C#N)=C/C(C)(C)C (mixture of isomers)", "Dmax": "> 70%"}
{"COMPOUND": "COc1cc(-c2cn(C)c(=O)c(C)c2C)cc(OC)c1CN1CC2CC(C1)N2C(=O)/C(C#N)=C/c1cccc(Br)n1 (mixture of isomers)", "Dmax": "> 70%"}
{"COMPOUND": "COc1cc(-c2cn(C)c(=O)c(C)c2C)cc(OC)c1CN1CCN(C(=O)C2CC(C(C)C)CN(C(=O)/C(C#N)=C/C(C)(C)C)C2)CC1 (stereo not shown)", "Dmax": "> 70%"}
{"COMPOUND": "COc1cc(-c2cn(C)c(=O)c(C)c2C)cc(OC)c1C(=O)N(C)C1CCN(C(=O)/C(C#N)=C/C(C)(C)C)CC1", "Dmax": "30 to 50%"}
{"COMPOUND": "COc1cc(-c2cn(C)c(=O)c(C)c2C)cc(OC)c1CN1CCN(C(=O)[C@@H]2CN(C(=O)/C(C#N)=C/c3ccc(F)cc3)C[C@H]2C2CCCCC2)CC1", "Dmax": "> 70%"}
{"COMPOUND": "COc1cc(-c2cn(C)c(=O)c(C)c2C)cc(OC)c1CN1CCN(C(=O)/C(C#N)=C/C(C)(C)C)CC1", "Dmax": "50 to 70%"}
{"COMPOUND": "COc1cc(-c2cn(C)c(=O)c(C)c2C)cc(OC)c1CN1CCN(C(=O)/C(C#N)=C/C(C)(C)C)CC12CC2", "Dmax": "50 to 70%"}
{"COMPOUND": "COc1cc(-c2cn(C)c(=O)c(C)c2C)cc(OC)c1CN1CC2CC1CN2C(=O)/C(C#N)=C/c1nccs1 (mixture of isomers)", "Dmax": "50 to 70%"}
{"COMPOUND": "COc1ccc(C2CC(C(=O)N3CCN(Cc4c(OC)cc(-c5cn(C)c(=O)c(C)c5C)cc4OC)CC3)CN(C(=O)/C(C#N)=C/C(C)(C)C)C2)cc1 (stereo not shown)", "Dmax": "> 70%"}

* * *

TARGET_UNDER_TEST: BRD9 (Homo sapiens, UniProt Q9H8M2)
PROCEDURE_TEXT: BRD9 degradation, HiBiT-BRD9 KI HEK293 (LgBiT) cells, NanoGlo Lytic Endpoint assay (Assay Protocol 1)
Type: cell-based
ASSAY_CONDITIONS: Table 2; BRD9 degradation, Assay Protocol 1; 6 h of treatment; read-out: Assay 1 DC50

{"COMPOUND": "COc1cc(-c2cc(C)c(=O)n(C)c2)cc(OC)c1CN1CCN(Cc2cccc3c2CCN(C(=O)/C(C#N)=C/c2cccc(Br)n2)C3C)CC1 (mixture of isomers)", "DC50": "< 1.25 nM"}
{"COMPOUND": "COc1cc(-c2cn(C)c(=O)c(C)c2C)cc(OC)c1CN1CCN(Cc2cccc3c2CCN(C(=O)/C(C#N)=C/c2cccc(Br)n2)C3C)CC1 (mixture of isomers)", "DC50": "1.25 to 10 nM"}
{"COMPOUND": "COc1cc(-c2cn(C)c(=O)c(C)c2C)cc(OC)c1CN1CCN(C(=O)CCc2cccc3c2CCN(C(=O)/C(C#N)=C/c2nccs2)C3C)CC1 (mixture of isomers)", "DC50": "1.25 to 10 nM"}
{"COMPOUND": "COc1cc(-c2cn(C)c(=O)c3cnccc23)cc(OC)c1CN(C)Cc1ccc2c(c1)C(C)N(C(=O)/C(C#N)=C/c1cccc(Br)n1)CC2 (mixture of isomers)", "DC50": "1.25 to 10 nM"}
{"COMPOUND": "COc1cc(-c2cn(C)c(=O)c3cnccc23)cc(OC)c1CN1CCN(Cc2cccc3c2CCN(C(=O)/C(C#N)=C/C(C)(C)C)[C@@H]3C)CC1 (single isomer, unassigned)", "DC50": "< 1.25 nM"}
{"COMPOUND": "COc1cc(-c2cn(C)c(=O)c3cnccc23)cc(OC)c1CN1CCN(Cc2cccc3c2CCN(C(=O)/C(C#N)=C\\C2CCOCC2)C3C)CC1 (mixture of isomers)", "DC50": "1.25 to 10 nM"}
{"COMPOUND": "COc1cc(-c2cn(C)c(=O)c(C)c2C)cc(OC)c1CN1CCN(Cc2cccc3c2CCN(C(=O)/C(C#N)=C/C2(C)COC2)C3C)CC1 (mixture of isomers)", "DC50": "1.25 to 10 nM"}
{"COMPOUND": "COc1cc(-c2cn(C)c(=O)c3cnccc23)cc(OC)c1CN1CCC(N(C)c2cccc3c2CCN(C(=O)/C(C#N)=C/C(C)(C)C)C3C)CC1 (centres unmarked)", "DC50": "1.25 to 10 nM"}
{"COMPOUND": "COc1cc(-c2cn(C)c(=O)c3cnccc23)cc(OC)c1CN1CCN(Cc2cccc3c2CCN(C(=O)/C(C#N)=C\\c2ccon2)C3C)CC1 (mixture of isomers)", "DC50": "1.25 to 10 nM"}
{"COMPOUND": "COc1cc(-c2cn(C)c(=O)c3cnccc23)cc(OC)c1CN(C)CCN(C)Cc1cccc2c1CCN(C(=O)/C(C#N)=C/C(C)(C)C)C2C (mixture of isomers)", "DC50": "10 to 25 nM"}
{"COMPOUND": "COc1cc(-c2cn(C)c(=O)c3cnccc23)cc(OC)c1CN1CCN(Cc2cccc3c2CCN(C(=O)/C(C#N)=C\\c2ccc(F)cn2)C3C)CC1 (mixture of isomers)", "DC50": "10 to 25 nM"}
{"COMPOUND": "COc1cc(-c2cn(C)c(=O)c3cnccc23)cc(OC)c1CN(C)Cc1cccc2c1CCN(C(=O)/C(C#N)=C/c1cccc(Br)n1)C2C (mixture of isomers)", "DC50": "< 1.25 nM"}
{"COMPOUND": "COc1cc(-c2cn(C)c(=O)c3cnccc23)cc(OC)c1CN1CC2CC1CN2Cc1cccc2c1CCN(C(=O)/C(C#N)=C/C(C)(C)C)C2C (single isomer, unassigned)", "DC50": "1.25 to 10 nM"}
{"COMPOUND": "COc1cc(-c2cn(C)c(=O)c3cnccc23)cc(OC)c1CN1CCN(Cc2cccc3c2CCN(C(=O)/C(C#N)=C\\c2nc(C)cs2)C3C)CC1 (mixture of isomers)", "DC50": "< 1.25 nM"}
{"COMPOUND": "COc1cc(-c2cn(C)c(=O)c3cnccc23)cc(OC)c1CN1CCN(Cc2cccc3c2CCN(C(=O)/C(C#N)=C\\c2nc(C)c(C)s2)C3C)CC1 (mixture of isomers)", "DC50": "1.25 to 10 nM"}
{"COMPOUND": "COc1cc(-c2cn(C)c(=O)c3cnccc23)cc(OC)c1CN1CCN(Cc2cccc3c2CCN(C(=O)/C(C#N)=C/c2cccc(Br)n2)C3C)CC1 (mixture of isomers)", "DC50": "< 1.25 nM"}
{"COMPOUND": "COc1cc(-c2cn(C)c(=O)c3cnccc23)cc(OC)c1CN1C2CCC1CN(Cc1cccc3c1CCN(C(=O)/C(C#N)=C/C(C)(C)C)C3C)C2 (centres unmarked)", "DC50": "1.25 to 10 nM"}
{"COMPOUND": "COc1cc(-c2cn(C)c(=O)c3cnccc23)cc(OC)c1CN1CCN(Cc2cccc3c2CCN(C(=O)/C(C#N)=C/c2nccs2)[C@@H]3C)CC1 (single isomer, unassigned)", "DC50": "< 1.25 nM"}
{"COMPOUND": "COc1cc(-c2cn(C)c(=O)c3cnccc23)cc(OC)c1CN1CCC(Oc2cccc3c2CCN(C(=O)/C(C#N)=C/C(C)(C)C)C3C)CC1 (mixture of isomers)", "DC50": "1.25 to 10 nM"}
{"COMPOUND": "COc1cc(-c2cn(C)c(=O)c3cnccc23)cc(OC)c1CN1CCN(Cc2cccc3c2CCN(C(=O)/C(C#N)=C/c2nccs2)[C@H]3C)CC1 (single isomer, unassigned)", "DC50": "1.25 to 10 nM"}
